Listing of recorded activation by entry.
Molecular target: CXCR3B (Homo sapiens, UniProt P49682)
Construct: expressed in transfected cells; host or cells: U87 cells
Sequence (P49682 1-415 isoform P49682-2): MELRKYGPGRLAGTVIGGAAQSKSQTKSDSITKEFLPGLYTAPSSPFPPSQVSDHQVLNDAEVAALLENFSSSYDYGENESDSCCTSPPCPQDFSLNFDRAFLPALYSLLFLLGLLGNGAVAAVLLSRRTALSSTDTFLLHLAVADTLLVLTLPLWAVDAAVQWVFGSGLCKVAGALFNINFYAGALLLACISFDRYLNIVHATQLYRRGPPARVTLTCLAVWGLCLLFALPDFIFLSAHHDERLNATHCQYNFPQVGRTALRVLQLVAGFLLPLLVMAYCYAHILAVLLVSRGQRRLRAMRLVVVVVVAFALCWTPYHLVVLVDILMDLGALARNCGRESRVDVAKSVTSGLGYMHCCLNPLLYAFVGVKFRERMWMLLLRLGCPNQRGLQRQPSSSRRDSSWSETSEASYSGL
Test: Figure S2a opioid peptide screen on chemokine receptors
Type: cell-based
Parameters: dose or concentration left out as unconfirmed
Conditions: replicate 2, read-out: CXCR3B activity, ctrl+ = 100
Form entry: value (%) — number only.

Consider the reported activation for these compounds:
>>> value("NC(=O)[C@H](Cc1ccccc1)NC(=O)[C@H](Cc1c[nH]c2ccccc12)NC(=O)[C@@H]1CCCN1C(=O)[C@@H](N)Cc1ccc(O)cc1 [Endomorphin-1]")
13
>>> value("CC[C@H](C)[C@H](NC(=O)[C@H](CCCNC(=N)N)NC(=O)[C@H](CCCNC(=N)N)NC(=O)[C@H](CC(C)C)NC(=O)[C@H](Cc1ccccc1)NC(=O)CNC(=O)CNC(=O)[C@@H](N)Cc1ccc(O)cc1)C(=O)N[C@@H](CCCNC(=N)N)C(=O)N1CCC[C@H]1C(=O)N[C@@H](CCCCN)C(=O)N[C@@H](CC(C)C)C(=O)N[C@@H](CCCCN)C(=O)O")
-5.01

Here is the next item to consider.
# activation of CSCC[C@H](NC(=O)[C@H](Cc1ccccc1)NC(=O)CNC(=O)CNC(=O)[C@@H](N)Cc1ccc(O)cc1)C(=O)N[C@@H](CCCNC(=N)N)C(=O)N[C@@H](CCCNC(=N)N)C(=O)N[C@H](C(N)=O)C(C)C = 1.55

----------
Biological target: CCR8 (Homo sapiens, UniProt P51685)
Sequence (P51685 whole entry): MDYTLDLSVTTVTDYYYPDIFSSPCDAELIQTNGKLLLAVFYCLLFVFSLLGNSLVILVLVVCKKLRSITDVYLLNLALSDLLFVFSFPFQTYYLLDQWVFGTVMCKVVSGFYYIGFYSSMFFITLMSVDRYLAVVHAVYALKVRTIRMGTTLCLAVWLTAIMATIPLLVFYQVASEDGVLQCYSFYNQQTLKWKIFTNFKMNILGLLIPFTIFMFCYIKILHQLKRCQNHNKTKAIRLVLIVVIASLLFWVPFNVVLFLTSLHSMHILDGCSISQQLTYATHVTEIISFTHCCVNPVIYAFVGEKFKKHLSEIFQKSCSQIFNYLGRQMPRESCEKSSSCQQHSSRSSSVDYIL
Assay: Figure S2a opioid peptide screen on chemokine receptors
Set-up: dose or concentration left out as unconfirmed
Conditions: read-out: CCR8 activity, ctrl+ = 100, Figure S2a; replicate 1
Starred links: 1 amine or outer side, 2 acyl side, 3 side chain; linkers in the order of their positions; H or OH if unused. Non-standard residues stand in square brackets, D forms with d. Residues, ends and D or L forms follow the SMILES beside them. X1 = N[C@@H](Cc1ccccc1)CN(CC(=O)[*:2])[*:1]
Each record here notes measured activation.
# unit: % | format: bare number

Solved entries (count: 5):
>>> value("C[C@H](NC(=O)CNC(=O)[C@@H](NC(=O)[C@H](Cc1ccccc1)NC(=O)CNC(=O)CNC[C@@H](N)Cc1ccccc1)[C@@H](C)O)C(=O)N[C@@H](CCCNC(=N)N)C(=O)N[C@@H](CCCCN)C(=O)N[C@@H](CO)C(=O)N[C@@H](C)C(=O)N[C@@H](CCCNC(=N)N)C(=O)N[C@@H](CCCCN)C(N)=O [FG Nociceptin 1-13] (H-[X1]GFTGARKSARK-NH2)")
-24.5
>>> value("NC(=O)[C@H](Cc1ccccc1)NC(=O)[C@H](Cc1c[nH]c2ccccc12)NC(=O)[C@@H]1CCCN1C(=O)[C@@H](N)Cc1ccc(O)cc1 [Endomorphin-1]")
-25.5
>>> value("C[C@H](NC(=O)CNC(=O)[C@@H](NC(=O)[C@H](Cc1ccccc1)NC(=O)CNC(=O)CNC(=O)[C@@H](N)Cc1ccccc1)[C@@H](C)O)C(=O)N[C@@H](CCCNC(=N)N)C(=O)N[C@@H](CCCCN)C(=O)N[C@@H](CO)C(=O)N[C@@H](C)C(=O)N[C@@H](CCCNC(=N)N)C(=O)N[C@@H](CCCCN)C(N)=O")
-35.6
>>> value("CC(C)C[C@H](NC(=O)[C@H](CCCCN)NC(=O)[C@H](CCCN=C(N)N)NC(=O)[C@H](C)NC(=O)[C@H](CO)NC(=O)[C@H](CCCCN)NC(=O)[C@H](CCCN=C(N)N)NC(=O)[C@H](C)NC(=O)CNC(=O)[C@@H](NC(=O)[C@H](Cc1ccccc1)NC(=O)CNC(=O)CNC(=O)[C@@H](N)Cc1ccccc1)[C@@H](C)O)C(=O)N[C@@H](C)C(=O)N[C@@H](CC(N)=O)C(=O)N[C@@H](CCC(N)=O)C(=O)O")
27.1
>>> value("CSCC[C@H](NC(=O)[C@H](Cc1ccccc1)NC(=O)CNC(=O)CNC(=O)[C@@H](N)Cc1ccc(O)cc1)C(=O)N[C@@H](CCCNC(=N)N)C(=O)N[C@@H](CCCNC(=N)N)C(=O)N[C@H](C(N)=O)C(C)C")
-17.4

Next item in the queue.
I looked up CC(C)C[C@H](NC(=O)[C@H](Cc1ccccc1)NC(=O)CNC(=O)CNC(=O)[C@@H](N)Cc1ccc(O)cc1)C(=O)N[C@@H](CCCN=C(N)N)C(=O)N[C@@H](CCCN=C(N)N)C(=O)N[C@@H](CCC(N)=O)C(=O)N[C@@H](Cc1ccccc1)C(=O)N[C@@H](CCCCN)C(=O)N[C@H](C(=O)N[C@H](C(=O)N[C@H](C(=O)O)[C@@H](C)O)C(C)C)C(C)C and its activation for CCR8 (Homo sapiens, UniProt P51685) was 2.83
